Parameter pIC50: see the listing below.
system_name: DP receptor (Homo sapiens)
Construct: the human cell line LS174T, which expresses the endogenous DP receptor; endogenous in cells
protocol_text: SPA cAMP assay in human LS174 T cells (human DP functional assay)
test_settings: inhibition of PGD2 (15 nM final) stimulated cAMP, LS174T cells expressing endogenous DP receptor
Method: The inhibitory effects of the compounds according to the invention are assessed in a human DP functional assay. A cAMP assay is employed using the human cell line LS174T, which expresses the endogenous DP receptor. Protocol for SPA cAMP Assay in Human LS174 T Cells […] The cAMP concentrations (pmol/mL) of unknown samples are calculated from a standard curve of cAMP versus CPM. % inhibition is calculated using the following formula: […]
Structures can show the parent of a compound that is named as a salt.
The read-out pIC50 is expressed as -log10 of concentration in moles per litre.

// solved cases for pIC50 follow
>  <compound>
COc1nc(NC2CCc3ccccc32)cc(-c2cccc(C(C)(C)C(=O)O)c2)n1 (centres unmarked) [Example 83(a)]

>  <measured_result>
7.08

$$$$
>  <compound>
COc1nc(NCCc2c(F)cccc2Cl)cc(-c2cccc(COCC(=O)O)c2)n1 [Example 56]

>  <measured_result>
9.22

$$$$
>  <compound>
COc1ccc(CCNc2cc(-c3ccc(F)c(/C=N\O)c3)nc(OC)n2)cc1 [Example 26]

>  <measured_result>
8.35

$$$$
>  <compound>
CCOc1nc(NCCc2ccc(OC)c(OC)c2)cc(-c2ccc(OC)c(OC)c2)n1 [Example 17(b)]

>  <measured_result>
6.18

$$$$
>  <compound>
COc1nc(NCCc2ccc3c(c2)OC(F)(F)O3)cc(-c2ccc[n+]([O-])c2)n1 [Example 21(b)]

>  <measured_result>
5.67

$$$$
>  <compound>
COc1ccc(CCNc2cc(-c3cccnc3)nc(OC)n2)cc1 [Example 35(x)]

>  <measured_result>
8.00

$$$$
>  <compound>
COc1nc(NCCc2ccc(Cl)cc2Cl)cc(-c2cccc(C(=O)OCCN3CCN(C)CC3)c2)n1 [Example 76]

>  <measured_result>
8.15

$$$$
>  <compound>
COc1nc(NCCc2ccc(Cl)cc2Cl)cc(-c2cccc(C(C)(C)C(=O)NS(=O)(=O)Cc3ccccc3)c2)n1 [Example 95(b)]

>  <measured_result>
8.70

$$$$
>  <compound>
COc1nc(NCCc2ccc(OC(F)(F)F)cc2)cc(-c2cccc(NC(C)=O)c2)n1 [Example 6(a)]

>  <measured_result>
8.32

$$$$
>  <compound>
COc1ccc(CCNc2cc(-c3ccc(C(=O)O)s3)nc(OC)n2)cc1 [Example 8(a), trifluoroacetate]

>  <measured_result>
9.48

$$$$

Provide only the value of recorded pIC50 for COc1ccc(CCNc2cc(-c3ccc(C(N)=O)cc3)nc(OC)n2)cc1 [Example 10(e)]
8.64

Give reported pIC50 value for COc1ccc(CCNc2cc(-c3ccc(F)c(CNCCN(C)C)c3)nc(OC)n2)cc1 [Example 13(d), hydrochloride]
7.25

Quick one: give measured pIC50 for COc1ccc(CCNc2cc(-c3cccc(C(=O)O)c3)nc(SC)n2)cc1OC [Example 16(b)]
6.61

Give the reported pIC50 for this compound. CCNC(=O)Oc1cccc(-c2cc(NCCc3ccc(Cl)cc3Cl)nc(OC)n2)c1 [Example 60]
9.30

Fill in pIC50 for record COc1nc(NCCc2c(F)cccc2Cl)cc(-c2ccc(=O)n(Cc3n[nH]c(=O)o3)c2)n1 [Example 33]
8.92

State, in one line, measured pIC50 of COc1ccc(CCNc2cc(-c3cccc(CNCCc4ccc(O)cc4)c3)nc(OC)n2)cc1 [Example 13(c), hydrochloride]
8.00

---

// reported pIC50 per item
system_name: DP receptor (Homo sapiens, UniProt Q13258)
Construct: the human cell line LS174T, which expresses the endogenous DP receptor; endogenous in cells; host or cells: LS174T human cell line
Sequence (Q13258 1-359): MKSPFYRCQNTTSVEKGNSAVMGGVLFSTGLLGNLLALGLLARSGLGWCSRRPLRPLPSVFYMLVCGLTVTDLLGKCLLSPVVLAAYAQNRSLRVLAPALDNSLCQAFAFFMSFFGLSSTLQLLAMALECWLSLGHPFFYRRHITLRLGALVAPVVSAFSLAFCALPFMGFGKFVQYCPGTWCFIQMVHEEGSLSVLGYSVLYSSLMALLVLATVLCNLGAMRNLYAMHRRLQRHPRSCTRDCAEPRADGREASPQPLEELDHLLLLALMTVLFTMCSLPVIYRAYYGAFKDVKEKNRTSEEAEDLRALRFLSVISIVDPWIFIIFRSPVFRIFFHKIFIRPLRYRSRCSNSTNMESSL
protocol_text: SPA cAMP assay in human LS174 T cells (human DP functional assay)
Assay type: cell-based
test_settings: inhibition of PGD2 (15 nM final) stimulated cAMP, LS174T cells expressing endogenous DP receptor
Bear in mind: pIC50 is minus log10 of a mol/L concentration; give just that figure.

Solved entries (count: 3):
>  <mol_smiles>
COc1ccc(CCNc2cc(-c3cccc(-c4nc(C)no4)c3)nc(OC)n2)cc1

>  <pIC50>
8.59

$$$$
>  <mol_smiles>
COc1ccc(CCNc2cc(-c3cccc(-c4cc(C)no4)c3)nc(OC)n2)cc1

>  <pIC50>
8.22

$$$$
>  <mol_smiles>
CCc1nc(NCCc2ccc(OC)cc2)cc(-c2cccc(OC)c2)n1

>  <pIC50>
6.66

$$$$

Return value of pIC50 for input COCc1nc(NCCc2ccc(Cl)cc2Cl)cc(-c2cccc(C(C)(C)C(=O)O)c2)n1 , no commentary.
8.57

---

system_name: DP receptor (Homo sapiens)
Construct: the human cell line LS174T, which expresses the endogenous DP receptor; endogenous in cells
protocol_text: SPA cAMP assay in human LS174 T cells (human DP functional assay)
test_settings: inhibition of PGD2 (15 nM final) stimulated cAMP, LS174T cells expressing endogenous DP receptor
Structures can show the parent of a compound that is named as a salt.
Rule: measured IC50 below 0.9 nM gets condition met; anything equal to or greater than 0.9 nM gets condition not met.

>  <compound>
CCOC(=O)C(C)(C)Oc1cccc(-c2cc(NCCc3ccc(OC)cc3)nc(OC)n2)c1 [Example 22(a)]

>  <class_label>
condition not met

$$$$
>  <compound>
COc1ccc(CCNc2cc(-c3ccc4cn[nH]c4c3)nc(OC)n2)cc1 [Example 53(b)]

>  <class_label>
condition not met

$$$$
>  <compound>
COc1nc(NCCc2ccc(Cl)cc2Cl)cc(-c2cccc(C(=O)NCC(=O)O)c2)n1 [Example 59]

>  <class_label>
condition met

$$$$
>  <compound>
COc1nc(NCCc2ccc(Cl)cc2Cl)cc(-c2cccc(C(C)(C)C(=O)OCC(O)CO)c2)n1 (centres unmarked) [Example 89]

>  <class_label>
condition not met

$$$$
>  <compound>
COc1nc(NCCc2ccc(Cl)cc2)cc(-c2cccc(C(=O)O)c2)n1 [Example 35(n), hydrochloride]

>  <class_label>
condition met

$$$$

Field: below-cutoff. Rule: recorded IC50 strictly less than 0.9 nM. Subject: CC(C)(C(=O)O)c1cccc(-c2cc(NCCc3ccc(Cl)cc3Cl)nc(CO)n2)c1 [Example 86]
condition not met

Is the reported IC50 for CCOC(=O)c1cc(-c2cc(NCCc3ccc(OC)cc3)nc(OC)n2)ccc1Cl [Example 35(z)] strictly below 0.9 nM?
condition not met

---

system_name: DP receptor (Homo sapiens, UniProt Q13258)
Construct: the human cell line LS174T, which expresses the endogenous DP receptor; endogenous in cells
Sequence (Q13258 1-359): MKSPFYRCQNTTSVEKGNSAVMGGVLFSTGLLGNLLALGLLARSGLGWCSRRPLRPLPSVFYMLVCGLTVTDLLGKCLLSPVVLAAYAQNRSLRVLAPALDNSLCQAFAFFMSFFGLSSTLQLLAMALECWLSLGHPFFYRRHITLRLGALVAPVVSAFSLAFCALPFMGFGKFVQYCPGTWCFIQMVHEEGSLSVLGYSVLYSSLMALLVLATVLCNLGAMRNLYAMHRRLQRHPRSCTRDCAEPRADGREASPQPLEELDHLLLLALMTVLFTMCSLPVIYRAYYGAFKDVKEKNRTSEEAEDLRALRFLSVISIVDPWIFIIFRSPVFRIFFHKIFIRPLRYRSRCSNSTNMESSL
protocol_text: SPA cAMP assay in human LS174 T cells (human DP functional assay)
test_settings: inhibition of PGD2 (15 nM final) stimulated cAMP, LS174T cells expressing endogenous DP receptor
Where a name gives a salt, the structure may show the parent alone.
Listed next: entries and their corresponding IC50.

# count of solved cases: 3
>  <molecule>
COc1nc(NCc2ccsc2)cc(-c2cccc(C(C)(C)C(=O)O)c2)n1 [Example 71]

>  <IC50>
393 nM

$$$$
>  <molecule>
COc1ccc(CCNc2cc(-c3ccncc3)nc(OC)n2)cc1 [Example 35(q)]

>  <IC50>
8 nM

$$$$
>  <molecule>
COc1cccc(-c2cc(NCCc3ccc([N+](=O)[O-])cc3)nc(OC)n2)c1 [Example 43(b)]

>  <IC50>
0.9 nM

$$$$

Complete the entry with IC50 for CNC(=O)c1ccc(-c2cc(NCCc3ccc(OC)cc3)nc(OC)n2)s1 [Example 62, trifluoroacetate]
0.3 nM

// fetch IC50 given entry COc1nc(NCCc2ccc(Cl)cc2Cl)cc(-c2cc(C(C)(C)C(=O)O)ccc2F)n1 [Example 99, hydrochloride]
0.5 nM

Indicate the recorded IC50 value for this molecule: COc1ccc(C(C)(C)CNc2cc(-c3cccc(OC)c3)nc(OC)n2)cc1 [Example 29]
792 nM

Please report the measured IC50 for COc1nc(NCCc2ccc(Cl)cc2Cl)cc(-c2cccc(C3(C(=O)O)CCCC3)c2)n1 [Example 74, hydrochloride]
0.5 nM

Answer with the recorded IC50 for the molecule listed here: COc1nc(NCCc2ccc(Cl)cc2Cl)cc(-c2cccc(C(C)(C)C(=O)Nc3nnn[nH]3)c2)n1 [Example 95(e)]
< 1 nM

For the molecule COCC(=O)NCc1cc(-c2cc(NCCc3ccc(OC)cc3)nc(OC)n2)ccc1F [Example 28, hydrochloride] , give its reported IC50.
9 nM

Determine from records and report IC50 for COc1nc(NCCc2ccc(C(F)(F)F)cc2F)cc(-c2ccc3[nH]cc(CC(=O)O)c3c2)n1 [Example 52]
0.4 nM

State its IC50 for this molecule: COc1ccc(CCNc2cc(-c3cccc(C(C)=O)c3)nc(OC)n2)cc1 [Example 35(h)]
5 nM

Give the reported IC50 for this molecule. COc1ccc(CCNc2cc(-c3ccc4c(c3)CCO4)nc(OC)n2)cc1 [Example 10(j)]
13 nM

Answer with the recorded IC50 of COc1ccc(CCNc2cc(-c3ccc(C(C)=O)s3)nc(OC)n2)cc1 [Example 35(m)] only.
3.8 nM
